Biological target: JMJD2C (Homo sapiens, UniProt Q9H3R0)
Sequence (Q9H3R0 2-372): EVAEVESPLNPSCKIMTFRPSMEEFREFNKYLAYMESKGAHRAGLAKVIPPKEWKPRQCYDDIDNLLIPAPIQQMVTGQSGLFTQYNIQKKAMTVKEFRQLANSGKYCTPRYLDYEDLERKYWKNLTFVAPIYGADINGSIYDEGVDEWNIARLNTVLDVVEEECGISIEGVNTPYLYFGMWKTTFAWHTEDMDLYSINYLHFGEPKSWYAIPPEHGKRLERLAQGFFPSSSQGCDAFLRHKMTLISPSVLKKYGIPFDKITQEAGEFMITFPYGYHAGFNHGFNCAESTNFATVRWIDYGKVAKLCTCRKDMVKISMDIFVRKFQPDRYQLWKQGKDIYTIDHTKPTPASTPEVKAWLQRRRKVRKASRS
Quick reference for IC50 among some molecules

Sample records with IC50:
Fc1ccccc1Cn1cnc(-c2cc(-c3nn[nH]c3C(F)(F)F)ccn2)c1; > 10 µM
CC(C)(C)c1ccc(CCn2cnc(-c3cc(-c4nn[nH]c4C(F)(F)F)ccn3)c2)cc1; > 10 µM

Consider the molecule Fc1cccc2c1CCCC2Cn1cnc(-c2cc(-c3nn[nH]c3C(F)(F)F)ccn2)c1 (centres unmarked) and give its measured IC50. > 10 µM

Consider the molecule COc1cccc2c1C(Cn1cnc(-c3cc(-c4nn[nH]c4C(F)(F)F)ccn3)c1)CCC2 (centres unmarked) and give its measured IC50. > 10 µM

Consider the molecule CCOc1ccccc1CCn1cnc(-c2cc(-c3nn[nH]c3C(F)(F)F)ccn2)c1 and give its measured IC50. > 10 µM

Consider the molecule FC(F)(F)c1[nH]nnc1-c1ccnc(-c2cn(Cc3ccccc3Cl)cn2)c1 and give its measured IC50. > 10 µM

Consider the molecule Cc1ccc2c(c1)CCCC2Cn1cnc(-c2cc(-c3nn[nH]c3C(F)(F)F)ccn2)c1 (centres unmarked) and give its measured IC50. > 10 µM

Consider the molecule Fc1ccc(CCn2cnc(-c3cc(-c4nn[nH]c4C(F)(F)F)ccn3)c2)cc1 and give its measured IC50. > 10 µM
